target: T1, CD8α Fc fusion protein (UniProt P01732 22-182, limits assumed); experiment: ELISA, plate coated with CD8α Fc fusion protein, anti-His-HRP detection, 4-parameter fit; relative to C37
T1 construct: Used as the coating antigen of the ELISAs; also called CD8α antigen; CD8α protein; not shown: Fc part
T1 sequence (P01732 22-182 limits assumed): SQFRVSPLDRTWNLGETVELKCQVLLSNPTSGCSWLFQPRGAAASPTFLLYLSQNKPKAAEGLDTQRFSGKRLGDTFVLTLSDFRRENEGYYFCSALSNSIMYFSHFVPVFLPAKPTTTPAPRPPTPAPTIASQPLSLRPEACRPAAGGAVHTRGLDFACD

{"binder": "C37-M112L (histidine-tagged) (VHH, not shown: histidine tag) VHH: QLQLVESGGGLVQAGGSLRLSCAASGLTFEDYAIGWFRQAPGKEREGISCIRIYDGNTYSAESVKGRFTISSDNAKNQVYLQINTLKPEDTAVYYCAAGSYYSCSVYPDYDLDYWGKGTLVTVSS", "Relative activity (%)": "206%"}
{"binder": "C37-E30S (histidine-tagged) (VHH, not shown: histidine tag) VHH: QLQLVESGGGLVQAGGSLRLSCAASGLTFSDYAIGWFRQAPGKEREGISCIRIYDGNTYSAESVKGRFTISSDNAKNQVYLQINTLKPEDTAVYYCAAGSYYSCSVYPDYDMDYWGKGTLVTVSS", "Relative activity (%)": "126%"}
{"binder": "C37-SRA (histidine-tagged) (VHH, not shown: histidine tag) VHH: QLQLVESGGGLVQAGGSLRLSCAASGLTFSDYAIGWFRQAPGKEREGISCIRIYDGNTYSAESVKGRFTISRDNAKNQVYLQINTLKPEDTAVYYCAAGSYYSCSVYPAYDMDYWGKGTLVTVSS", "Relative activity (%)": "40%"}
{"binder": "C37-D111A (histidine-tagged) (VHH, not shown: histidine tag) VHH: QLQLVESGGGLVQAGGSLRLSCAASGLTFEDYAIGWFRQAPGKEREGISCIRIYDGNTYSAESVKGRFTISSDNAKNQVYLQINTLKPEDTAVYYCAAGSYYSCSVYPDYAMDYWGKGTLVTVSS", "Relative activity (%)": "84.6%"}
